target: Ba/F3-KDR-transfected cells (Homo sapiens, UniProt P35968); test: Ba/F3-KDR (minus IL3) cellular proliferation assay, Alamar Blue; format: cell-based; conditions: minus IL3
Sequence (P35968 whole entry, change not shown): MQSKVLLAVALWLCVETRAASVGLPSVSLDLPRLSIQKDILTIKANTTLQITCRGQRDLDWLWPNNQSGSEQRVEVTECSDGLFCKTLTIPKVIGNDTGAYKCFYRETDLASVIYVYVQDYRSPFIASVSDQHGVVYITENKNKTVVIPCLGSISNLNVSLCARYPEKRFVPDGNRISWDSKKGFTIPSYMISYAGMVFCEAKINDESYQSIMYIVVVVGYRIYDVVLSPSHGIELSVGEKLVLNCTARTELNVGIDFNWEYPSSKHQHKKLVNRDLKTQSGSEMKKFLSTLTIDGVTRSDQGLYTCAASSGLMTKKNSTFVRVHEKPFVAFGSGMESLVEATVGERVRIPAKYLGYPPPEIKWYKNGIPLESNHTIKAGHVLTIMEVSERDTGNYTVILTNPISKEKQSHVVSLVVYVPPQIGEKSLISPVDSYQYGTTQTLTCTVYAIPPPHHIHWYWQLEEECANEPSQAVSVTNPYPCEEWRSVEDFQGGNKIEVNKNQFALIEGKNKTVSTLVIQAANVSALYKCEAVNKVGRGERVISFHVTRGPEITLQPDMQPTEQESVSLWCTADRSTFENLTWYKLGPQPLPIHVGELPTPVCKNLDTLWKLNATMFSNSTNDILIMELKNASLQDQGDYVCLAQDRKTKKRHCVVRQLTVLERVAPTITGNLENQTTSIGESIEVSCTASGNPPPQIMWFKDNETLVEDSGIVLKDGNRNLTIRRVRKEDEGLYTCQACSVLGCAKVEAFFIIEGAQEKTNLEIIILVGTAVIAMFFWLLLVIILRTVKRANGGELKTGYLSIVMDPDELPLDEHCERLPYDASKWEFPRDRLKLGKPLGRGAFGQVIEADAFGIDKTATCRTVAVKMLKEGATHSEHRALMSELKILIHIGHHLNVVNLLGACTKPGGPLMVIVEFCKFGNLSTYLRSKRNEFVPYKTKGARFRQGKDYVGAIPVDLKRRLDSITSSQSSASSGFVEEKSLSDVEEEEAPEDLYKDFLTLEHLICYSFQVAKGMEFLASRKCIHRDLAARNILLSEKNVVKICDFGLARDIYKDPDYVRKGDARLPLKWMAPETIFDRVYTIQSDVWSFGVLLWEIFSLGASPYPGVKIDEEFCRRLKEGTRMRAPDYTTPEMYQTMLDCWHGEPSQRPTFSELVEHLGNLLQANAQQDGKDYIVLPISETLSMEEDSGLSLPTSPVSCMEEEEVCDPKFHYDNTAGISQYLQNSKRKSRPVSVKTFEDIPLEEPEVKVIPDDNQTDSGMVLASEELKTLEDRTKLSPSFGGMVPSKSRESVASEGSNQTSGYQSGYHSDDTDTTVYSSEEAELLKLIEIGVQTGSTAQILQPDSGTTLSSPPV
endpoint: BAF3-KDR (MIN IL3) 384 well pIC50

Recorded results for 4 compounds are shown here.
compound	BAF3-KDR (MIN IL3) 384 well pIC50
COc1cc(OC)cc(N(CCCNC(C)C)c2ccc3ncc(-c4ccnc(NC(=O)OC(C)(C)C)c4)nc3c2)c1	5.67
COc1cc(OC)cc(N(CCNC(C)C)c2ccc3ncc(C(=O)N4CCCCC4)nc3c2)c1	<5
COc1cc(OC)cc(N(CC2CC2)c2ccc3ncc(-c4c[nH]cn4)nc3c2)c1	<5
COc1cc(OC)cc(N(CC2CO2)c2ccc3ncc(-c4ccc(N)nc4)nc3c2)c1 (stereo not shown)	5.45

Prompt: Assign BAF3-KDR (MIN IL3) 384 well pIC50 to the following record: COc1cc(OC)cc(N(CC2CC2)c2ccc3ncc(-c4ocnc4C)nc3c2)c1
Completion: <5

Prompt: For the compound COc1cc(OC)cc(N(CCCO)c2ccc3ncc(-c4cccnc4F)nc3c2)c1 , give its reported BAF3-KDR (MIN IL3) 384 well pIC50.
Completion: <5

Prompt: Look up and report measured BAF3-KDR (MIN IL3) 384 well pIC50 for this entry: COc1cc(OC)cc(N(CCN2CCOCC2)c2ccc3ncc(-c4ccc(N)nc4)nc3c2)c1
Completion: 5.1

Prompt: Check the records and state BAF3-KDR (MIN IL3) 384 well pIC50 for COc1cc(OC)cc(N(CCCO)c2ccc3ncc(-c4ccc(F)nc4)nc3c2)c1
Completion: <5

Prompt: Tell me its BAF3-KDR (MIN IL3) 384 well pIC50 given CNc1ccc(-c2cnc3ccc(N(CCCNCC(F)(F)F)c4cc(OC)cc(OC)c4)cc3n2)cn1 as the entry.
Completion: <5

Prompt: Quote BAF3-KDR (MIN IL3) 384 well pIC50 reported for COc1cc(OC)cc(N(CC2CC2)c2ccc3ncc(-c4ccnn4C)nc3c2)c1 please.
Completion: <5

Prompt: // fetch BAF3-KDR (MIN IL3) 384 well pIC50 given entry COc1cc(OC)cc(N(CCO)c2ccc3ncc(/C(C)=N/OC(C)(C)C)nc3c2)c1
Completion: <5

Prompt: For COc1cc(OC)cc(N(CC2CC2)c2ccc3ncc(-n4cnc(CO)c4)nc3c2)c1 , write its BAF3-KDR (MIN IL3) 384 well pIC50.
Completion: <5

Prompt: Specify BAF3-KDR (MIN IL3) 384 well pIC50 for COc1cc(OC)cc(N(CC2CC2)c2ccc3ncc(-c4nccs4)nc3c2)c1 and stop.
Completion: <5

Prompt: Using known records, supply BAF3-KDR (MIN IL3) 384 well pIC50 for CNCCN(c1cc(OC)cc(OC)c1)c1ccc2ncc(-c3ccc(NC(=O)OC(C)(C)C)nc3)nc2c1
Completion: 5.62

Prompt: Identify BAF3-KDR (MIN IL3) 384 well pIC50 associated with the compound COc1cc(OC)cc(N(CCCO)c2ccc3ncc(-c4ccnc(NC(=O)OC(C)(C)C)c4)nc3c2)c1
Completion: <5

Prompt: Specify BAF3-KDR (MIN IL3) 384 well pIC50 for COc1cc(OC)cc(N(CCN2CCN(C(C)=O)CC2)c2ccc3ncc(-c4ccc(N)nc4)nc3c2)c1 and stop.
Completion: <5
